Task for the reader: assign each of the following molecules its reported responders at 20 mg/kg.
System: Candida albicans ATCC10231
measurement_protocol: Systemic fungal infection in mice, intravenous administration
Format: in vivo, ICR mice
stated_conditions: 96 h, read-out: survival rate of mice, day 4
Report the figure in % without appending any unit label.

Return reported responders at 20 mg/kg. Input molecule: CC[C@@H]([C@H](C)O)n1ncn(-c2ccc(N3CCN(c4ccc(OC[C@@H]5CO[C@@](Cn6c[n+](C(C)OC(=O)N(C)c7ncccc7COC(=O)[C@@H](N)CO)cn6)(c6ccc(F)cc6F)C5)cc4)CC3)cc2)c1=O (some centres unmarked) [ST0025]
100

Given CC[C@@H]([C@H](C)OC(=O)OC(C)OC(=O)CCCCCOP(=O)([O-])[O-])n1ncn(-c2ccc(N3CCN(c4ccc(OC[C@@H]5CO[C@@](Cn6cncn6)(c6ccc(F)cc6F)C5)cc4)CC3)cc2)c1=O.[Na+].[Na+] (some centres unmarked) [ST0063] , respond with its responders at 20 mg/kg.
90
